Assay: foam volume of surfactant solutions (Hobart mixer, graduated cylinder)
Format: physicochemical
Conditions: 200 mL of 500 ppm solution, Hobart mixer 3 minutes at medium speed
Metric: Foam Volume (cm^3)
Just the number please, in cm^3, no unit attached.

CCN(CCC(=O)O)S(=O)(=O)C(F)(F)C(F)(F)C(F)(F)C(F)(F)C(F)(F)C(F)(F)C(F)(F)C(F)(F)F [Comparative Example C5]    1500

Query block: Requested read-out: Foam Volume. Entry: CCN(CCC(=O)NCCC[N+](C)(C)CC)S(=O)(=O)C(F)(F)C(F)(F)C(F)(F)C(F)(F)C(F)(F)C(F)(F)C(F)(F)C(F)(F)F
Result block: 600

Query block: Quick one: Foam Volume of CCN(CCC(=O)NCCC[N+](C)(C)CCCS(=O)(=O)[O-])S(=O)(=O)C(F)(F)C(F)(F)C(F)(F)C(F)(F)C(F)(F)C(F)(F)C(F)(F)C(F)(F)F ?
Result block: 900

Query block: May I ask what Foam Volume has been recorded for CCN(CCC(=O)O)S(=O)(=O)C(F)(F)C(F)(F)C(F)(F)C(F)(F)C(F)(F)C(F)(F)C(F)(F)C(F)(F)F [Comparative Example C7] ?
Result block: 2200

Query block: Which value of Foam Volume has been reported for CC[N+](C)(CC)CCNS(=O)(=O)C(F)(F)C(F)(F)C(F)(F)C(F)(F)C(F)(F)C(F)(F)C(F)(F)C(F)(F)F in the records?
Result block: 2600

Query block: Which Foam Volume reading was recorded for the molecule O=C(O)CCNCCNS(=O)(=O)C(F)(F)C(F)(F)C(F)(F)C(F)(F)C(F)(F)C(F)(F)C(F)(F)C(F)(F)F ?
Result block: 300

Query block: Can you look up the measured Foam Volume of CCN(CC(=O)O)S(=O)(=O)C(F)(F)C(F)(F)C(F)(F)C(F)(F)C(F)(F)C(F)(F)C(F)(F)C(F)(F)F for me?
Result block: 2600

###

Experiment: surface tension of aqueous solutions (du Nouy tensiometer)
Assay type: physicochemical
Conditions: 100 ppm (0.01% solids) in deionized water, diluted from 10% solids in water/isopropyl alcohol
Metric: Surface tension (dynes/cm) at 100 ppm

Query block: Which Surface tension (dynes/cm) at 100 ppm value is on record for CCN(CCC(=O)NCCC[N+](C)(C)CCCS(=O)(=O)[O-])S(=O)(=O)C(F)(F)C(F)(F)C(F)(F)C(F)(F)C(F)(F)C(F)(F)C(F)(F)C(F)(F)F [Comparative Example C9] ?
Result block: 20.0 dynes/cm

Query block: Which Surface tension (dynes/cm) at 100 ppm reading was recorded for the compound CCN(CCC(=O)O)S(=O)(=O)C(F)(F)C(F)(F)C(F)(F)C(F)(F)C(F)(F)C(F)(F)C(F)(F)C(F)(F)F [Comparative Example C5] ?
Result block: 24.3 dynes/cm

Query block: // query Surface tension (dynes/cm) at 100 ppm value for entry CCN(CCC(=O)O)S(=O)(=O)C(F)(F)C(F)(F)C(F)(F)C(F)(F)C(F)(F)C(F)(F)C(F)(F)C(F)(F)F [Comparative Example C7]
Result block: 19.1 dynes/cm

###

Experiment: foam half-life (seconds needed to drain 100 mL of solution from the foam)
Type: physicochemical
Conditions: 200 mL of 500 ppm solution; seconds to drain 100 mL of solution from the foam
molecules and their reported Foam Half-Life
Answer with a number only, understood to be in min.

Guide cases for Foam Half-Life, answers given:
CCN(CC(=O)O)S(=O)(=O)C(F)(F)C(F)(F)C(F)(F)C(F)(F)C(F)(F)C(F)(F)C(F)(F)C(F)(F)F    6.25
CC[N+](C)(CC)CCNS(=O)(=O)C(F)(F)C(F)(F)C(F)(F)C(F)(F)C(F)(F)C(F)(F)C(F)(F)C(F)(F)F    5.33
CCN(CCC(=O)O)S(=O)(=O)C(F)(F)C(F)(F)C(F)(F)C(F)(F)C(F)(F)C(F)(F)C(F)(F)C(F)(F)F [Comparative Example C5]    1.38

Query block: Name the reported Foam Half-Life value associated with the molecule C[N+](C)(CCCNS(=O)(=O)C(F)(F)C(F)(F)C(F)(F)C(F)(F)C(F)(F)C(F)(F)F)CC(=O)[O-]
Result block: 5.33

Query block: Reported Foam Half-Life for CCN(CCC(=O)NCCC[N+](C)(C)CCCS(=O)(=O)[O-])S(=O)(=O)C(F)(F)C(F)(F)C(F)(F)C(F)(F)C(F)(F)C(F)(F)C(F)(F)C(F)(F)F : what is it?
Result block: 0.583

###

Assay: foam half-life (seconds needed to drain 100 mL of solution from the foam)
Assay type: physicochemical
Conditions: 200 mL of 500 ppm solution; seconds to drain 100 mL of solution from the foam
Metric: Foam Half-Life (s)
Give your result in s as a bare value.

CCN(CCC(=O)O)S(=O)(=O)C(F)(F)C(F)(F)C(F)(F)C(F)(F)C(F)(F)C(F)(F)C(F)(F)C(F)(F)F [Comparative Example C6]    245

Query block: Record request: Foam Half-Life value, item CCN(CCC(=O)O)S(=O)(=O)C(F)(F)C(F)(F)C(F)(F)C(F)(F)C(F)(F)C(F)(F)C(F)(F)C(F)(F)F [Comparative Example C7]
Result block: 300

###

Quick reference for Foam Volume among some molecules
Assay: foam volume of surfactant solutions (Hobart mixer, graduated cylinder)
Assay type: physicochemical
Conditions: 200 mL of 500 ppm solution, Hobart mixer 3 minutes at medium speed
Your answer is read as cm^3, so omit the unit and give the number.

Consider the reported Foam Volume for these molecules:
CC(C)(CS(=O)(=O)O)NC(=O)CCNCCNS(=O)(=O)C(F)(F)C(F)(F)C(F)(F)C(F)(F)C(F)(F)C(F)(F)C(F)(F)C(F)(F)F [Example 1]    300
C[N+](C)(CCCNS(=O)(=O)C(F)(F)C(F)(F)C(F)(F)C(F)(F)C(F)(F)C(F)(F)F)CC(=O)[O-] [Comparative Example C12]    2400

Shifting focus to the molecule that follows.
Query block: Field request: Foam Volume | item: CCN(CCC(=O)O)S(=O)(=O)C(F)(F)C(F)(F)C(F)(F)C(F)(F)C(F)(F)C(F)(F)C(F)(F)C(F)(F)F [Comparative Example C6]
Result block: 1900
